Molecular target: recombinant human KDM4A (Homo sapiens, UniProt O75164)
Sequence (O75164 1-359 limits assumed): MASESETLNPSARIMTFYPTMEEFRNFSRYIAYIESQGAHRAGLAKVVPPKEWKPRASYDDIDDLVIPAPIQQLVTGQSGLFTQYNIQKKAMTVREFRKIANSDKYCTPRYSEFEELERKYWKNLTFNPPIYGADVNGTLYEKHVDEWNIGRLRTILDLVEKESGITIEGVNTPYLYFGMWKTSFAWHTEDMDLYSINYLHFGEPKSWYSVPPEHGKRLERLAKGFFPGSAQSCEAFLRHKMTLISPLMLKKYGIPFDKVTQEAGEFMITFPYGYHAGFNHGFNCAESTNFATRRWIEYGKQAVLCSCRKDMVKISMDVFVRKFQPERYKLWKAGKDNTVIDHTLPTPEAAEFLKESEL
Experiment: 14CO2 capture enzymatic assay (decarboxylation of [1-14C] αKG), KDM4A
Conditions: 10 μM [1-14C] αKG, 90 μM non-labeled αKG, 50 μM peptide substrate, 37° C., 1 hour, final 1% DMSO
pIC50: −log10 of the molar value.
Exercise: state measured pIC50 for each of the molecules provided.

Here's what some known entries look like.
Smi	pIC50
N#Cc1cc(-c2ccc(-c3ccccc3)c3ccccc23)nc(C(=O)CCC(=O)O)c1O	< 4.40
Cc1c(F)cccc1-c1cc(C#N)c(O)c(C(=O)CCC(=O)O)n1	< 4.40
Cc1cc(Cl)cc(C)c1Cc1cc(C#N)c(O)c(C(=O)CCC(=O)O)n1	5.01
N#Cc1cc(C(F)(F)F)nc(C(=O)CCC(=O)O)c1O	4.92
N#Cc1cc(-c2ccccc2)cc(C(=O)CCC(=O)O)c1O	< 4.40

Give me pIC50 for each of these molecules, listed below.
1. Cc1cccc(Cc2cc(C#N)c(O)c(C(=O)CCC(=O)O)n2)c1
2. COc1cc(Cl)c(Cc2cc(C#N)c(O)c(C(=O)CCC(=O)O)n2)c(Cl)c1
3. N#Cc1cc(Cc2ccc(-c3ccccc3)cc2)nc(C(=O)CCC(=O)O)c1O
4. N#Cc1cc(NC(=O)c2ccccc2)nc(C(=O)CCC(=O)O)c1O

stdout:
1: < 4.40; 2: < 4.40; 3: < 4.40; 4: < 4.40
